Please go through the items and note down their % inhibition Apo pol 10'.
Target: P. falciparum apicoplast DNA polymerase (Pf-apPOL) (Plasmodium falciparum, UniProt Q8ILY1)
Sequence (Q8ILY1 entry or part of it): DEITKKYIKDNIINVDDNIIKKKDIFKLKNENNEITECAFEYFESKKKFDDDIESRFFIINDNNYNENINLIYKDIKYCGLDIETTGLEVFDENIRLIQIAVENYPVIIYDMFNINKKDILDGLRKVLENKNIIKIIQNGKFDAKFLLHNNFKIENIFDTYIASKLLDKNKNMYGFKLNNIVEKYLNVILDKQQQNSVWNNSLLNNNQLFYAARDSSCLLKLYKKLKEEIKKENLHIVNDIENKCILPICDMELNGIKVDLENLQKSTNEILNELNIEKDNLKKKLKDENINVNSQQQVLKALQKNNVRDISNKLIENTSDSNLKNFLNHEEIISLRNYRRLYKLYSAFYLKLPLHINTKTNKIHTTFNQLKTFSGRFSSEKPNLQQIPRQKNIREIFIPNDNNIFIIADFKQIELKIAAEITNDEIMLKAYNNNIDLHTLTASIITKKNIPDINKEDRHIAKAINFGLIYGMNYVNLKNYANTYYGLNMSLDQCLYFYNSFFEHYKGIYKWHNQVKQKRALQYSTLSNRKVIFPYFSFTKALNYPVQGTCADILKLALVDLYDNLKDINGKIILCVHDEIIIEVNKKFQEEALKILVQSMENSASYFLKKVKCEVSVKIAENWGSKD
Test: Fluorescence-based high-throughput DNA polymerase assay (molecular beacon), primary screen and dose-response
Format: biochemical
Conditions: DRC-1; 10'; concentration 2.5
Numbers only, in %.

Compound: Cc1cc(C)c(O)c(/N=C/c2cc([N+](=O)[O-])cc(Br)c2O)c1
Unit tag: %
Observed value: 3.169
--
Compound: CO/N=C(\C(=O)N[C@@H]1C(=O)N2C(C(=O)[O-])=C(CSc3nc(=O)c([O-])nn3C)CSC12)c1csc(N)n1.[Na+].[Na+] (stereo partly shown)
Unit tag: %
Observed value: 18.7657
--
Compound: COc1ccc(NC(=O)Cn2ccc3c(=O)[nH]ccc32)cc1 [Molecule 13, COc1ccc(cc1)NC(=O)Cn1ccc2c1cc[nH]c2=O]
Unit tag: %
Observed value: 9.9864

Please give the documented % inhibition Apo pol 10' of "COc1ccc2c(c1)CCc1c-2nc2ccc(Br)cc2c1C(=O)O"
25.2919

###

Target: P. falciparum apicoplast DNA polymerase (Pf-apPOL) (Plasmodium falciparum)
Experiment: Fluorescence-based high-throughput DNA polymerase assay (molecular beacon), primary screen and dose-response
Format: biochemical
Details: DRC-2, 90', concentration 40
Readout label: % inhibition ApPOL 90' (%)
Answers are plain numbers, in %.

These solved cases illustrate the format of a correct answer.
Smiles text: O=C(Nc1nnc(-c2ccno2)o1)c1ccc2c(c1)OCO2
Readout label: % inhibition ApPOL 90'
Observed value: 36
--
Smiles text: COc1ccccc1CCC(=O)N1CCc2c(nc3cc(-c4ccccc4)[nH]n3c2=O)C1
Readout label: % inhibition ApPOL 90'
Observed value: 62

Now look at this entry.
Please give the documented % inhibition ApPOL 90' of "CCSc1nnc(NC(=O)Cc2csc(NC(=O)c3cnccn3)n2)s1"
62

###

Molecular target: UniProt Q8ILY1
Assay: Fluorescence-based high-throughput DNA polymerase assay (molecular beacon), primary screen and dose-response
Format: biochemical
Details: DRC-2; 180'; concentration 40
Readout label: % inhibition apPOL 180'

Smiles text: COc1cc(Cl)c(C)cc1NC(=O)Cn1ccc2c(=O)[nH]ccc21
Subject of test: UniProt Q8ILY1
% inhibition apPOL 180': 67%
--
Smiles text: Cc1ccc(NC(=O)C2CCN(C(=O)c3cc4ccsc4[nH]3)CC2)c(Br)c1
Subject of test: UniProt Q8ILY1
% inhibition apPOL 180': 64%

Count: 3. Required value per item: % inhibition apPOL 180'.
1. O=[N+]([O-])c1ccc(SCc2ccco2)c2cccnc12
2. CC(=O)c1cc2c(N)c(/C(N)=N/C#N)sc2nc1C
3. COc1ccc(-c2c(C(F)(F)F)nn3c(=O)cc(-c4cccc([N+](=O)[O-])c4)[nH]c23)cc1

75%
34%
75%

###

Biological target: P. falciparum apicoplast DNA polymerase (Pf-apPOL) (Plasmodium falciparum, UniProt Q8ILY1)
Assay: Fluorescence-based high-throughput DNA polymerase assay (molecular beacon), primary screen and dose-response;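 on % inhibition apPOL 180': test concentration in µM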
Type: biochemical
Details: DRC-2; concentration 5; 180'
Readout label: % inhibition apPOL 180' (%)
Answers are plain numbers, in %.

These solved cases illustrate the format of a correct answer.
Molecule: COc1ccc(-c2occ(C(=O)O)c2C(=O)O)cc1
Subject of test: P. falciparum apicoplast DNA polymerase (Pf-apPOL) (Plasmodium falciparum, UniProt Q8ILY1)
% inhibition apPOL 180' / %: 27

Molecule: O=[N+]([O-])c1ccc(SCc2ccco2)c2cccnc12
Subject of test: P. falciparum apicoplast DNA polymerase (Pf-apPOL) (Plasmodium falciparum, UniProt Q8ILY1)
% inhibition apPOL 180' / %: 16

Molecule: CCCCCc1c2c(cc(O)c1C(=O)O)OC(=O)c1c(cc(OC)cc1C(=O)CCCC)O2
Subject of test: P. falciparum apicoplast DNA polymerase (Pf-apPOL) (Plasmodium falciparum, UniProt Q8ILY1)
% inhibition apPOL 180' / %: 11

Molecule: Nc1ncnc(NC2CCCCC2)c1[N+](=O)[O-]
Subject of test: P. falciparum apicoplast DNA polymerase (Pf-apPOL) (Plasmodium falciparum, UniProt Q8ILY1)
% inhibition apPOL 180' / %: -3.38

Molecule: CCOc1ccc2cc(C3=NN(C(=O)CCC(=O)O)C(c4ccc(C)cc4)C3)c(=O)[nH]c2c1 (stereo not drawn)
Subject of test: P. falciparum apicoplast DNA polymerase (Pf-apPOL) (Plasmodium falciparum, UniProt Q8ILY1)
% inhibition apPOL 180' / %: 1.23

Count: 4. Required value per item: % inhibition apPOL 180'.
1. O=C(O)c1nc(-c2ccccc2)nc2c1OCO2
2. O=C(Cn1ccc2c(=O)[nH]ccc21)Nc1ccccc1Cl [Molecule 19, O=C(Cn1ccc2c1cc[nH]c2=O)Nc1ccccc1Cl]
3. Oc1cccnc1/N=C/c1cc(I)cc(I)c1O
4. CCCN1COc2ccc3c(=O)c(-c4ccccc4)coc3c2C1

[-1.28, 18, 17, -84]

Count: 3. Required value per item: % inhibition apPOL 180'.
1. CCc1ccccc1NC(=O)c1ccc(-c2ncccc2NC(C)=O)cc1
2. Cc1ccc(C2=N/C(=C\c3ccc(I)o3)C(=O)O2)cc1[N+](=O)[O-]
3. O=C(O)c1cc([N+](=O)[O-])c(N2CCN(c3cccc(C(F)(F)F)c3)CC2)c([N+](=O)[O-])c1

[-1.68, 17, 8.45]
